Ref: the supplement of paper PMC10724198

Tested on: Saccharomyces cerevisiae;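 further: PSI is a weighted mean of sequencing reads over stability bins, variants kept only with over 10 reads, mCherry proximal and sfGFP distal, peptide attached via GGGS linker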
Assay: protein stability index of tFT-peptide fusion (C-terminal peptide) (PSI (0-1 scale)); higher = more stable (slower turnover)
Settings: genetic background: wild type; temperature: 30 C
Decision: protein stability index >= 0.7 yields satisfied, all other cases yield not satisfied.

# ordered.residues, class
measured = [
    ("GGGAGLVGGCVA", "satisfied"),
    ("MIRVRGRQKIEG", "satisfied"),
    ("SILRRFSPPPLL", "satisfied"),
    ("PPPPPLLAPSPL", "not satisfied"),
    ("YGGLFFLVSLPP", "not satisfied"),
    ("RGFGSGTVGVQS", "not satisfied"),
    ("LDCVPRTHCILS", "not satisfied"),
    ("DAGSSYRFFRFI", "not satisfied"),
    ("VEYGRLPRGEEG", "not satisfied"),
    ("CPLPPPRPLLSA", "not satisfied"),
    ("KKKKKKKKKKKR", "not satisfied"),
    ("LSLRGRLNYRMM", "not satisfied"),
    ("AEMGQDGADAGQ", "not satisfied"),
    ("VIAYSLLSWGDF", "not satisfied"),
]
